All values here come from patent EP4740948A1.

Biological target: EZH1 (Homo sapiens)
Sequence (Q92800 whole entry, species assumed): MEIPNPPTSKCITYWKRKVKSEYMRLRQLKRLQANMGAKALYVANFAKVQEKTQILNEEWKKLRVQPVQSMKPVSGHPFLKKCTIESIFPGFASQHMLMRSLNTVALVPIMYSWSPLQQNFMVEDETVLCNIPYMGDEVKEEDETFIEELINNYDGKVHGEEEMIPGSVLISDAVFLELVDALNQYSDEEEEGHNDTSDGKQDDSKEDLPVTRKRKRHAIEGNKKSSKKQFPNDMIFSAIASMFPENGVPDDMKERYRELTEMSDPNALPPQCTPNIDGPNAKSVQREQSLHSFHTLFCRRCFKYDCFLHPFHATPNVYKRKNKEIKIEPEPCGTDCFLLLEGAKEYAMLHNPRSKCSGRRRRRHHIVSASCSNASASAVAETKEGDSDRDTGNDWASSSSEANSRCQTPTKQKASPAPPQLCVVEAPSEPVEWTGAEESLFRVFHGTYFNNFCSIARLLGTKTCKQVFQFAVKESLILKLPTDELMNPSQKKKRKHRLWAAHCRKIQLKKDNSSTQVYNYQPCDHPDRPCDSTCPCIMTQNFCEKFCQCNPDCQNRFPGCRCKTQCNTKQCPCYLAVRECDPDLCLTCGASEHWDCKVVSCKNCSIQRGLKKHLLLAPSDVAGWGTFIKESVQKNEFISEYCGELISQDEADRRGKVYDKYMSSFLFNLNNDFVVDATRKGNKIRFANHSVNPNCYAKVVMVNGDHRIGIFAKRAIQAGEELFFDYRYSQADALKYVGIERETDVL
Sequence (O75530 whole entry partner, species assumed): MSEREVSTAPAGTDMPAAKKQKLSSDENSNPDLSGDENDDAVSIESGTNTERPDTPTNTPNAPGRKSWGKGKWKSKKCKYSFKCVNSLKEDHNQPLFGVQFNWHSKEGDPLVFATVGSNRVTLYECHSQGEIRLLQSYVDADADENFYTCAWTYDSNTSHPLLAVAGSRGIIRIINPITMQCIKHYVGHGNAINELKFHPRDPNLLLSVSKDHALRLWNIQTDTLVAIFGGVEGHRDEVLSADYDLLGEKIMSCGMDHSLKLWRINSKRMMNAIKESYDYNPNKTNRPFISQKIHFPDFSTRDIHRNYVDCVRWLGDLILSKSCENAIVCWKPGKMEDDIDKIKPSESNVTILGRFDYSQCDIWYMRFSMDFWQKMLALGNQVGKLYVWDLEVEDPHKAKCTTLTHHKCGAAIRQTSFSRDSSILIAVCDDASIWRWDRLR
Sequence (Q15022 whole entry partner, species assumed): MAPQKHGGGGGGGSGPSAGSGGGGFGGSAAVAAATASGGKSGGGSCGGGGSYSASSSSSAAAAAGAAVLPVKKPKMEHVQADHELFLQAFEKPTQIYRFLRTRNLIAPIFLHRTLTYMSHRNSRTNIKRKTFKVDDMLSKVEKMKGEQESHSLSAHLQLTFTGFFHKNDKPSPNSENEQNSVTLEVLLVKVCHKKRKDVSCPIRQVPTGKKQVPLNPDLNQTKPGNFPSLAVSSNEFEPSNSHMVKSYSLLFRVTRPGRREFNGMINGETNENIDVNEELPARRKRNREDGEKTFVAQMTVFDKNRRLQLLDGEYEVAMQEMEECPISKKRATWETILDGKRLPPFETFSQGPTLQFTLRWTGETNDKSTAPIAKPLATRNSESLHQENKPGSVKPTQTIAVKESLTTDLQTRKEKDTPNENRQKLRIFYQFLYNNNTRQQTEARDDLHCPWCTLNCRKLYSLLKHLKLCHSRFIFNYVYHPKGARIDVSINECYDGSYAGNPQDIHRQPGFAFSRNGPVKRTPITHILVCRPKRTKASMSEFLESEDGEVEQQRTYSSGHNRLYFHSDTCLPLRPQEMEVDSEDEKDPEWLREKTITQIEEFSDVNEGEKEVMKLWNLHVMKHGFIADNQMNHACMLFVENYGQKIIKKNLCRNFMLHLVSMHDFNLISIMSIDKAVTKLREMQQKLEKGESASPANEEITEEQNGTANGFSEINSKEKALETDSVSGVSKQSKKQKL
Assay: AlphaLISA enzyme activity inhibition, EZH1
Type: biochemical
Conditions: 5nM test substance
Recorded inhibition at 0.005 µM, one value per entry.
readout_type: inhibition at 0.005 µM (%)

>>> experimental_result("COCCN(C)[C@H]1CC[C@H](C2(C)Oc3c(-c4ccc(N5C[C@@H](C)O[C@@H](C)C5)nc4)cc(C(=O)NCc4c(SC)cc(C)[nH]c4=O)c(C)c3O2)CC1 (some centres unmarked) [Compound 24]")
35.1
>>> experimental_result("CCN(C)c1ncc(-c2cc(C(=O)NCc3c(SC)cc(C)[nH]c3=O)c(C)c3c2OC(C)(C2CCN(CC(F)(F)F)CC2)O3)cn1 (centres unmarked) [Compound 78]")
53.1
>>> experimental_result("CSc1cc(C)[nH]c(=O)c1CNC(=O)c1cc(-c2ccc(N3CCOCC3)cc2)c2c(c1C)OC(C)([C@H]1CC[C@H](N(C)C)CC1)O2 (relative stereo) [Compound 9]")
86.1
>>> experimental_result("COC(CN(C)[C@H]1CC[C@H](C2(C)Oc3c(-c4ccc(N5C[C@@H](C)O[C@@H](C)C5)nc4)cc(C(=O)NCc4c(SC)cc(C)[nH]c4=O)c(C)c3O2)CC1)OC (some centres unmarked) [Compound 31]")
67.3
>>> experimental_result("CCCOCCN(C)[C@H]1CC[C@H](C2(C)Oc3c(-c4ccc(N5C[C@@H](C)O[C@@H](C)C5)nc4)cc(C(=O)NCc4c(SC)cc(C)[nH]c4=O)c(C)c3O2)CC1 (some centres unmarked) [Compound 30]")
80.4

----------
Tested on: SW-13 cells
Assay: Cancer cell proliferation inhibition (Cell Counting Kit-8), adrenal cancer cell line
Type: cell-based
Conditions: Homo sapiens, SW13, 264 h, 1000 nM, cultured seven to 11 days; read-out: % inhibition rate SW-13
readout_type: inhibition at 1 µM

>>> experimental_result("CSc1cc(C)[nH]c(=O)c1CNC(=O)c1cc(-c2ccc(N3C[C@@H](C)O[C@@H](C)C3)nc2)c2c(c1C)OC(C)(C1CCN(C[C@H](C)O)CC1)O2 (stereo partly drawn)")
"30 to 70%"
>>> experimental_result("CSc1cc(C)[nH]c(=O)c1CNC(=O)c1cc(-c2ccsc2)c2c(c1C)OC(C)(C1CCC(N(C)C)CC1)O2 (stereo not drawn)")
"30 to 70%"
>>> experimental_result("CSc1cc(C)[nH]c(=O)c1CNC(=O)c1cc(-c2ccc(N3C[C@@H](C)O[C@@H](C)C3)nc2)c2c(c1C)OC(C)([C@H]1CC[C@H](N(C)C(=O)C(F)(F)F)CC1)O2 (stereo partly drawn)")
"≤ 30%"
>>> experimental_result("CSc1cc(C)[nH]c(=O)c1CNC(=O)c1cc(-c2ccc(N3C[C@@H](C)O[C@@H](C)C3)nc2)c2c(c1C)OC(C)([C@H]1CC[C@H](N3CC(O)C3)CC1)O2 (stereo partly drawn)")
"30 to 70%"
>>> experimental_result("CSc1cc(C)[nH]c(=O)c1CNC(=O)c1cc(-c2ccc3c(c2)OCO3)c2c(c1C)OC(C)(C1CCN(CC(F)F)CC1)O2 (stereo not drawn)")
"≤ 30%"
>>> experimental_result("CSc1cc(C)[nH]c(=O)c1CNC(=O)c1cc(-c2ccc(F)nc2F)c2c(c1C)OC(C)([C@H]1CC[C@H](N(C)C)CC1)O2 (relative stereo)")
"30 to 70%"
>>> experimental_result("CSc1cc(C)[nH]c(=O)c1CNC(=O)c1cc(-c2cnc(N3CCOCC3)nc2)c2c(c1C)OC(C)(C1CCN(CC(F)(F)F)CC1)O2 (single isomer, unassigned) [Compound 69]")
"30 to 70%"
>>> experimental_result("CSc1cc(C)[nH]c(=O)c1CNC(=O)c1cc(-c2ccc3c(c2)OC(F)(F)O3)c2c(c1C)OC(C)(C1CCN(CC(F)(F)F)CC1)O2 (stereo not drawn)")
"30 to 70%"
>>> experimental_result("CCCCN(C)c1ncc(-c2cc(C(=O)NCc3c(SC)cc(C)[nH]c3=O)c(C)c3c2OC(C)(C2CCN(CC(F)(F)F)CC2)O3)cn1 (stereo not drawn)")
"30 to 70%"
>>> experimental_result("CCN1CCC(C2(C)Oc3c(-c4ccc(N5CCOCC5)nc4)cc(C(=O)NCc4c(SC)cc(C)[nH]c4=O)c(C)c3O2)CC1 (single isomer, unassigned)")
"≤ 30%"
>>> experimental_result("COC(CN1CCC(C2(C)Oc3c(-c4ccc(N5C[C@@H](C)O[C@@H](C)C5)nc4)cc(C(=O)NCc4c(SC)cc(C)[nH]c4=O)c(C)c3O2)CC1)OC (stereo partly drawn)")
"≤ 30%"
>>> experimental_result("COc1ccc(F)cc1-c1cc(C(=O)NCc2c(SC)cc(C)[nH]c2=O)c(C)c2c1OC(C)([C@H]1CC[C@H](N(C)C)CC1)O2 (relative stereo)")
"30 to 70%"
>>> experimental_result("CCN1CCC(C2(C)Oc3c(-c4cnc(N(C)CC)nc4)cc(C(=O)NCc4c(SC)cc(C)[nH]c4=O)c(C)c3O2)CC1 (single isomer, unassigned)")
"30 to 70%"
>>> experimental_result("CSc1cc(C)[nH]c(=O)c1CNC(=O)c1cc(-c2ccc(F)cc2)c2c(c1C)OC(C)([C@H]1CC[C@H](N(C)C)CC1)O2 (relative stereo)")
"30 to 70%"
>>> experimental_result("CSc1cc(C)[nH]c(=O)c1CNC(=O)c1cc(-c2ccc3c(c2)OCO3)c2c(c1C)OC(C)(C1CCN(CC(F)(F)F)CC1)O2 (stereo not drawn)")
"≤ 30%"
>>> experimental_result("CCN1CCN(c2ncc(-c3cc(C(=O)NCc4c(SC)cc(C)[nH]c4=O)c(C)c4c3OC(C)(C3CCN(CC(F)(F)F)CC3)O4)cn2)CC1 (single isomer, unassigned) [Compound 76]")
"30 to 70%"
>>> experimental_result("CCN1CCC(C2(C)Oc3c(-c4ccc(N(C)CC)nc4)cc(C(=O)NCc4c(SC)cc(C)[nH]c4=O)c(C)c3O2)CC1 (single isomer, unassigned)")
"30 to 70%"
>>> experimental_result("CSc1cc(C)[nH]c(=O)c1CNC(=O)c1cc(-c2ccc(N3C[C@@H](C)O[C@@H](C)C3)nc2)c2c(c1C)OC(C)([C@H]1CC[C@H](N(C)CC(F)F)CC1)O2 (stereo partly drawn)")
"30 to 70%"
>>> experimental_result("CSc1cc(C)[nH]c(=O)c1CNC(=O)c1cc(-c2ccc(N3C[C@@H](C)O[C@@H](C)C3)nc2)c2c(c1C)OC(C)([C@H]1CC[C@H](N(C)C3CCCCC3)CC1)O2 (stereo partly drawn)")
"30 to 70%"
>>> experimental_result("CSc1cc(C)[nH]c(=O)c1CNC(=O)c1cc(-c2ccc(N3C[C@@H](C)O[C@@H](C)C3)nc2)c2c(c1C)OC(C)([C@H]1CC[C@H](N(C)CC3OCCO3)CC1)O2 (stereo partly drawn)")
"30 to 70%"
>>> experimental_result("CSc1cc(C)[nH]c(=O)c1CNC(=O)c1cc(-c2ccc(N3C[C@@H](C)O[C@@H](C)C3)nc2)c2c(c1C)OC(C)(C1CCN(CCc3ccccc3)CC1)O2 (single isomer, unassigned)")
"30 to 70%"
